read-out: urokinase plasminogen activator (uPA), PLAU (gene 5328); assay: BSK_BE3C_uPA: BioMAP Diversity Plus: BE3C Assay for urokinase plasminogen activator (uPA) Biomarker Activity (AID 2283038); conditions: primary human bronchial epithelial cells; actives raise or lower the signal
Activity calls are given as the source filed them. The calls were made as follows: active = hit-call score of the fitted dose curve at least 0.9, where 1 is the maximum; inactive = score below 0.9.
Labels: T for active, F for inactive

{"Compound": "CC(C)C(=O)C(C)C", "Assigned Class": "F"}
{"Compound": "c1ccc2c(c1)ccc1cc3c(ccc4ccccc43)cc12", "Assigned Class": "F"}
{"Compound": "CCO[Si](CCCN=C=O)(OCC)OCC", "Assigned Class": "F"}
{"Compound": "C/C=C\\C/C=C/CCCCCCCCOC(C)=O", "Assigned Class": "F"}
{"Compound": "CC1OC1C1CCC2(C)OC2C1 (stereo unspecified)", "Assigned Class": "F"}
{"Compound": "C#CC1(O)CC[C@H]2[C@@H]3CCC4=CCCC[C@@H]4[C@H]3CC[C@@]21C (stereo partly specified)", "Assigned Class": "T"}

----------
Assay: TOX21_p53_BLA_p4_viability: Viability Assessment in the Tox21 HCT-116 p53 Agonism Beta-lactamase Assay, Phase 4 (AID 2283597);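 also: hits lower the luminescence signal meaning cytotoxicity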
Excerpt: TOX21_p53_BLA_p4 is a cell-based, single-readout assay that uses HCT116, a human intestinal cell line, […] in a 1536-well plate.TOX21_p53_BLA_p4_viability is an assay readout measuring cellular ATP content and detected with CellTiter-Glo Luciferase-coupled ATP quantitation.TOX21_p53_BLA_p4_viability used a type of viability reporter where loss-of-signal activity can be used to understand changes in the cell viability. […]
Records with an inconclusive call do not appear. Calls of active or inactive are those of the source. The calls were made as follows: active = hit-call score of the fitted dose curve at least 0.9, where 1 is the maximum; inconclusive = response in the unintended direction; inactive = score below 0.9.
Outcome codes: active, inactive

{"Compound": "COC(=O)/C=C/C(C)=C\\C=C\\C(C)=C\\C=C\\C=C(C)\\C=C\\C=C(C)\\C=C\\C(=O)O", "Assigned Class": "inactive"}
{"Compound": "CCCCCCOC(=O)C(C)CC (stereo unspecified)", "Assigned Class": "inactive"}
{"Compound": "O=[N+]([O-])C1(Br)COCOC1", "Assigned Class": "inactive"}
{"Compound": "CC(=O)OCC(=O)[C@@]12N=C(C)O[C@@H]1C[C@H]1[C@@H]3CCC4=CC(=O)C=C[C@]4(C)[C@H]3[C@@H](O)C[C@@]12C", "Assigned Class": "inactive"}
{"Compound": "CCCCCCC1(C)CCC(=O)O1 (stereo unspecified)", "Assigned Class": "inactive"}
{"Compound": "CCCCCCCC/C=C\\CCCCCCCC(=O)O", "Assigned Class": "inactive"}
{"Compound": "CC(=O)[C@@]1(O)CC[C@H]2[C@@H]3C[C@H](C)C4=CC(=O)C=C[C@]4(C)[C@@]3(F)[C@@H](O)C[C@@]21C", "Assigned Class": "inactive"}
{"Compound": "O=C(C=Cc1ccccc1)OCc1ccccc1", "Assigned Class": "inactive"}
{"Compound": "CCCCCCCCCCCCCOP(=O)(O)O", "Assigned Class": "inactive"}
{"Compound": "O=C(O)Cc1c(Cl)ccc(Cl)c1Cl", "Assigned Class": "inactive"}
{"Compound": "Nc1ccc(Cl)cc1Cl", "Assigned Class": "inactive"}
{"Compound": "CCCCC(CC)CCC(CC(C)C)OS(=O)(=O)O (stereo unspecified)", "Assigned Class": "inactive"}
{"Compound": "CCCCCCOc1cc(C)c(O)c(C)c1C", "Assigned Class": "active"}
{"Compound": "CC=CC(=O)N(CC)c1ccccc1C", "Assigned Class": "inactive"}
{"Compound": "OCCNCc1ccccc1", "Assigned Class": "inactive"}
{"Compound": "CC(=O)Nc1ccc2c(c1)Cc1cc(NC(C)=O)ccc1-2", "Assigned Class": "inactive"}
{"Compound": "NCCCN1CCN(CCCN)CC1", "Assigned Class": "inactive"}
{"Compound": "Cc1cc(O)c(Cl)c(C)c1Cl", "Assigned Class": "active"}
{"Compound": "C(=CC=Nc1ccccc1)C=CNc1ccccc1", "Assigned Class": "inactive"}
{"Compound": "CC(C)CCCC(C)CC=O (stereo unspecified)", "Assigned Class": "inactive"}
{"Compound": "O=C(C(Cl)Cl)N1CCOC12CCCCC2", "Assigned Class": "inactive"}
{"Compound": "C=CC(=O)NC(C)(C)CS(=O)(=O)O", "Assigned Class": "inactive"}
{"Compound": "O=C(Nc1ccccc1)c1ccccc1O", "Assigned Class": "inactive"}
{"Compound": "COc1ccc(C(Cl)=C(c2ccc(OC)cc2)c2ccc(OC)cc2)cc1", "Assigned Class": "inactive"}
{"Compound": "C#CC1(O)CC[C@H]2[C@@H]3CCC4=CCCC[C@@H]4[C@H]3CC[C@@]21C (stereo partly specified)", "Assigned Class": "active"}
{"Compound": "CCc1nccnc1C", "Assigned Class": "inactive"}
{"Compound": "O=C(Oc1ccccc1)c1ccc2ccccc2c1O", "Assigned Class": "inactive"}
{"Compound": "COC(=O)C1=C(C)NC(C)=C(C(=O)OCC(C)C)C1c1ccccc1[N+](=O)[O-] (stereo unspecified)", "Assigned Class": "inactive"}
{"Compound": "CCCOC(=O)CCCCC(=O)OCCC", "Assigned Class": "inactive"}
{"Compound": "COc1ccc([C@@H]2CC(=O)c3c(O)cc(O[C@@H]4O[C@H](CO[C@@H]5O[C@@H](C)[C@H](O)[C@@H](O)[C@H]5O)[C@@H](O)[C@H](O)[C@H]4O)cc3O2)cc1OC", "Assigned Class": "inactive"}
{"Compound": "C1CN(SSN2CCOCC2)CCO1", "Assigned Class": "inactive"}
{"Compound": "O=C1CCCN1CCO", "Assigned Class": "inactive"}
{"Compound": "CC(CC=O)c1ccccc1 (stereo unspecified)", "Assigned Class": "inactive"}
{"Compound": "O=c1c2ccccc2nnn1CCl", "Assigned Class": "inactive"}
{"Compound": "N#CCc1ccc(Cl)cc1Cl", "Assigned Class": "inactive"}
{"Compound": "CC(C)c1ccc2c(C(C)C)cc(C(C)C)c(S(=O)(=O)O)c2c1", "Assigned Class": "active"}
{"Compound": "O=C(/C=C/C=C/c1ccc2c(c1)OCO2)N1CCCCC1", "Assigned Class": "inactive"}
{"Compound": "CCOCC(=O)O", "Assigned Class": "inactive"}
{"Compound": "Cc1cccc(C(=O)O)c1", "Assigned Class": "inactive"}
{"Compound": "CC(C)C1=CC2=CC[C@@H]3[C@](C)(CCC[C@@]3(C)C(=O)O)[C@H]2CC1", "Assigned Class": "inactive"}
{"Compound": "CC(=O)OCCC1CCCCC1", "Assigned Class": "inactive"}
{"Compound": "O=C1CCCC1", "Assigned Class": "inactive"}
{"Compound": "CCC(C)C=O (stereo unspecified)", "Assigned Class": "inactive"}
{"Compound": "COc1ccc(-c2coc3cc(O)ccc3c2=O)cc1", "Assigned Class": "inactive"}
{"Compound": "COCc1c(C(C)C)nc(C(C)C)c(/C=C/[C@@H](O)C[C@@H](O)CC(=O)O)c1-c1ccc(F)cc1", "Assigned Class": "inactive"}
{"Compound": "CC1=NN(c2cc(S(=O)(=O)O)ccc2Cl)C(=O)C1N=Nc1ccccc1 (stereo unspecified)", "Assigned Class": "inactive"}
